biological target: human COX-1 (Homo sapiens); assay: Inhibition of PGE2 release in COS cells stably transfected with human COX-1; conditions: 30 μM arachidonic acid, PGE2 release by enzyme immunoassay
Sequence (P23219 24-599): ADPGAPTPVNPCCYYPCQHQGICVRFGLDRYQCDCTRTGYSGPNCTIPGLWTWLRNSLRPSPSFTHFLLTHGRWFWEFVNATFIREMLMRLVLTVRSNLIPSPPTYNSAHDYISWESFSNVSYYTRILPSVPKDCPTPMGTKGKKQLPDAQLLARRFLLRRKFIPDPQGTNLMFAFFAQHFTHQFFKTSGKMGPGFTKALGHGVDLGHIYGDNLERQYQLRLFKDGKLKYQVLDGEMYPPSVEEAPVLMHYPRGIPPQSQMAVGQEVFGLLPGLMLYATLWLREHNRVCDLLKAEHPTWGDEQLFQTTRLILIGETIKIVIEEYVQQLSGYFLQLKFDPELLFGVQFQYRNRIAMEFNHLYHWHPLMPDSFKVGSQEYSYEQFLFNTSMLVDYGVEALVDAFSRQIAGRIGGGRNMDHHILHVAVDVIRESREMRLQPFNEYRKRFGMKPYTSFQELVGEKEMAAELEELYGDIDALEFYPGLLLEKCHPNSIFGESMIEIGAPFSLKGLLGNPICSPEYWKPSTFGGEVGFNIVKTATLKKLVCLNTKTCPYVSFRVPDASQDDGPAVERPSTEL
pIC50: −log10 of the molar value.
Metric name: pIC50

Find the recorded pIC50 belonging to CS(=O)(=O)c1ccc(-c2c(-c3ccc(F)cc3)nn3nc(OC(F)F)ccc23)cc1 and report it.
< 4.00

Find the recorded pIC50 belonging to CS(=O)(=O)c1ccc(-c2c(-c3ccc(OC(F)F)cc3)nn3ncccc23)cc1 and report it.
< 4.00

Find the recorded pIC50 belonging to CS(=O)(=O)c1ccc(-c2c(-c3cccc(F)c3)nn3nc(OC(F)F)ccc23)cc1 and report it.
< 4.26

Find the recorded pIC50 belonging to CCOc1ccc(-c2nn3ncccc3c2-c2ccc(S(C)(=O)=O)cc2)cc1 and report it.
< 4.00

* * *

Biological target: human COX-2 (Homo sapiens, UniProt P35354)
Sequence (P35354 18-604): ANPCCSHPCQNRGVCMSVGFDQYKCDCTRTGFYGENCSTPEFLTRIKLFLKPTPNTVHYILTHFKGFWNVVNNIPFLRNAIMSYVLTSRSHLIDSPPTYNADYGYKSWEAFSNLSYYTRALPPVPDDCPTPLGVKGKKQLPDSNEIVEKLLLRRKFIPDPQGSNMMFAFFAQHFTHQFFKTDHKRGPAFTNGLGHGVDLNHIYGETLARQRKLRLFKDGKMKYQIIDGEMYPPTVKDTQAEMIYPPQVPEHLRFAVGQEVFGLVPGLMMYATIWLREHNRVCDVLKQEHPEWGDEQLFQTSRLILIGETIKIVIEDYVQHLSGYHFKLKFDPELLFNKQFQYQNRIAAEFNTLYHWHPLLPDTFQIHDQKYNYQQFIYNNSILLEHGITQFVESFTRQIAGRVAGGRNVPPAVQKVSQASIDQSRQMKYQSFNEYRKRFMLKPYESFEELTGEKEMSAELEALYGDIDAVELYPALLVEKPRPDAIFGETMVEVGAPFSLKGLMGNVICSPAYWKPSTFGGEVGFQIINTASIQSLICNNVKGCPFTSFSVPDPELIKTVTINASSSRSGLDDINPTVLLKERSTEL
Experiment: Inhibition of PGE2 release in COS cells stably transfected with human COX-2
Conditions: 30 μM arachidonic acid, PGE2 release by enzyme immunoassay
Provide the recorded IC50 for the entries that follow.
All answers are understood in nM, so give the number only.

Please state recorded IC50 (tested on human COX-2 (Homo sapiens, UniProt P35354)) of CS(=O)(=O)c1ccc(-c2c(-c3ccc(OC(F)F)cc3)nn3ncccc23)cc1
21

Please state recorded IC50 (tested on human COX-2 (Homo sapiens, UniProt P35354)) of CS(=O)(=O)c1ccc(-c2c(-c3cccc(F)c3)nn3nc(OC(F)F)ccc23)cc1
16

Please state recorded IC50 (tested on human COX-2 (Homo sapiens, UniProt P35354)) of CS(=O)(=O)c1ccc(-c2c(-c3ccc(F)cc3)nn3nc(OC(F)F)ccc23)cc1
35
